TESTED SYSTEM: T1, human PVRIG on cells (human, UniProt Q6DKI7 1-326)
T1 construct: whole, on cells; over-expressed on HEK cells or endogenous on Jurkat and CD8 T cells; also called hPVRIG; HEK hPVRIG cells
T1 sequence (looked up): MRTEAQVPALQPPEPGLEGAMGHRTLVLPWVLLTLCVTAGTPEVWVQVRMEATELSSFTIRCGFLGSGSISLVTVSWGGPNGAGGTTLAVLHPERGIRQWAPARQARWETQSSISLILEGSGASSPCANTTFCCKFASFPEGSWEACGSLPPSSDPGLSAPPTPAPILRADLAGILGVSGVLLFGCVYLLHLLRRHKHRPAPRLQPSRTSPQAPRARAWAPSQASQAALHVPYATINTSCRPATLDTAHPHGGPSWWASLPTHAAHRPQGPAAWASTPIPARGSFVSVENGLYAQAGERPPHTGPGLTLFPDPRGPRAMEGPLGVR
MEASUREMENT NOTES: FACS, HEK hPVRIG cells (HEK OE)
pEC50: −log10 of the molar value.
Label scheme for pEC50: lower than 8 is label 0, 8 and above is label 1.

Query block: Would you say CHA.7.530 (antibody, V domains shown) VH: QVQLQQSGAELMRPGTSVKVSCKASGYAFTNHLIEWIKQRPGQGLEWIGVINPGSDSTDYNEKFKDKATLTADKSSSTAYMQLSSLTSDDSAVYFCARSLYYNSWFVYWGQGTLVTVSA VL: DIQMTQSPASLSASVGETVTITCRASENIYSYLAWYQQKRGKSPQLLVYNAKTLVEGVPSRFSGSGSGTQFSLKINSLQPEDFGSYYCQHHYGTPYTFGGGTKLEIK shows pEC50 at minimum 8?
Result block: label 1
